measured.target: Neu5Ac(a2-6)Gal(b1-4)Glc
protocol: glycan array binding signal (z-score within array); higher = stronger binding
test.parameters: glycan notation: IUPAC condensed, linker removed
Shown is part of a subset that was picked to be rich in the strongest signals.
result.type: glycan array binding signal (z-score)
Returns: the value as a bare number; no unit string appended.

Recall and state the measured glycan array binding signal (z-score) for Flo11 (Saccharomyces cerevisiae), Q1H8S8 (protein) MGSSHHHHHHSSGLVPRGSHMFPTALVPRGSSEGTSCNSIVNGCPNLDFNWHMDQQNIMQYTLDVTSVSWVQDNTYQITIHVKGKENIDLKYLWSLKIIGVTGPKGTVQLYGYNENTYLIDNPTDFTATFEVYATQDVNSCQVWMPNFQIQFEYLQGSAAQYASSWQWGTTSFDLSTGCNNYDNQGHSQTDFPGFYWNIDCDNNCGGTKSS . -0.507
